Below, each entry is listed with its recorded ΔG^298.
# testDescription: Thermal denaturation followed by CD spectroscopy
# Assay type: physicochemical
# conditionParameters: calculated from ΔH and ΔS at 298 K

| molecule | ΔG^298, kcal/mol |
| --- | --- |
| L177A ALKBH3: ALKBH3 mutant, Leu177 replaced with Ala (protein, UniProt Q96Q83 1-286, looked up, variant L177A) Alpha-ketoglutarate-dependent …: MEEKRRRARVQGAWAAPVKSQAIAQPATTAKSHLHQKPGQTWKNKEHHLSDREFVFKEPQQVVRRAPEPRVIDREGVYEISLSPTGVSRVCLYPGFVDVKEADWILEQLCQDVPWKQRTGIREDITYQQPRLTAWYGELPYTYSRITMEPNPHWHPVLRTLKNRIEENTGHTFNSLACNLYRNEKDSVDWHSDDEPSLGRCPIIASLSFGATRTFEMRKKPPPEENGDYTYVERVKIPLDHGTLLIMEGATQADWQHRVPKEYHSREPRVNLTFRTVYPDPRGAPW | 4.8 |
| Y143A ALKBH3: ALKBH3 mutant, Tyr143 replaced with Ala (protein, UniProt Q96Q83 1-286, looked up, variant Y143A) Alpha-ketoglutarate-dependent …: MEEKRRRARVQGAWAAPVKSQAIAQPATTAKSHLHQKPGQTWKNKEHHLSDREFVFKEPQQVVRRAPEPRVIDREGVYEISLSPTGVSRVCLYPGFVDVKEADWILEQLCQDVPWKQRTGIREDITYQQPRLTAWYGELPYTASRITMEPNPHWHPVLRTLKNRIEENTGHTFNSLLCNLYRNEKDSVDWHSDDEPSLGRCPIIASLSFGATRTFEMRKKPPPEENGDYTYVERVKIPLDHGTLLIMEGATQADWQHRVPKEYHSREPRVNLTFRTVYPDPRGAPW | 3.3 |
| H191A ALKBH3: ALKBH3 mutant, His191 replaced with Ala (protein, UniProt Q96Q83 1-286, looked up, variant H191A) Alpha-ketoglutarate-dependent …: MEEKRRRARVQGAWAAPVKSQAIAQPATTAKSHLHQKPGQTWKNKEHHLSDREFVFKEPQQVVRRAPEPRVIDREGVYEISLSPTGVSRVCLYPGFVDVKEADWILEQLCQDVPWKQRTGIREDITYQQPRLTAWYGELPYTYSRITMEPNPHWHPVLRTLKNRIEENTGHTFNSLLCNLYRNEKDSVDWASDDEPSLGRCPIIASLSFGATRTFEMRKKPPPEENGDYTYVERVKIPLDHGTLLIMEGATQADWQHRVPKEYHSREPRVNLTFRTVYPDPRGAPW | 6.9 |
| Y143F ALKBH3: ALKBH3 mutant, Tyr143 replaced with Phe (protein, UniProt Q96Q83 1-286, looked up, variant Y143F) Alpha-ketoglutarate-dependent …: MEEKRRRARVQGAWAAPVKSQAIAQPATTAKSHLHQKPGQTWKNKEHHLSDREFVFKEPQQVVRRAPEPRVIDREGVYEISLSPTGVSRVCLYPGFVDVKEADWILEQLCQDVPWKQRTGIREDITYQQPRLTAWYGELPYTFSRITMEPNPHWHPVLRTLKNRIEENTGHTFNSLLCNLYRNEKDSVDWHSDDEPSLGRCPIIASLSFGATRTFEMRKKPPPEENGDYTYVERVKIPLDHGTLLIMEGATQADWQHRVPKEYHSREPRVNLTFRTVYPDPRGAPW | 4.7 |
